Assay: Visual solubility analysis in 13 solvents
Type: physicochemical
Conditions: organic solvent or mixture, thermodynamic from solid, Methanol, 20° C., read-out: Solubility (S)
quantity.name: solubility

INSERT INTO measurements (compound, result) VALUES
  ('CC#C[C@@H](CC(=O)O)c1ccc(O[C@@H]2CCc3c(-c4ccc(O[C@@H]5CCOC5)nc4)ccc(F)c32)cc1 [Crystalline Form Compound 1]', '6000 to 8000 µg/mL');

###

Assay: Visual solubility analysis in 13 solvents
Type: physicochemical
Details: organic solvent or mixture, thermodynamic from solid, 2-Propanol, 20° C., read-out: Solubility (S)
quantity.name: solubility

INSERT INTO measurements (compound, result) VALUES
  ('CC#C[C@@H](CC(=O)O)c1ccc(O[C@@H]2CCc3c(-c4ccc(O[C@@H]5CCOC5)nc4)ccc(F)c32)cc1 [Crystalline Form Compound 1]', '5000 to 6000 µg/mL');

###

Test: Visual solubility analysis in 13 solvents
Type: physicochemical
Settings: organic solvent or mixture, thermodynamic from solid, Tetrahydrofuran, 20° C., read-out: Solubility (S)
quantity.name: solubility

INSERT INTO measurements (compound, result) VALUES
  ('CC#C[C@@H](CC(=O)O)c1ccc(O[C@@H]2CCc3c(-c4ccc(O[C@@H]5CCOC5)nc4)ccc(F)c32)cc1 [Crystalline Form Compound 1]', '> 100 mg/mL');

###

Assay: Visual solubility analysis in 13 solvents
Format: physicochemical
Conditions: organic solvent or mixture, thermodynamic from solid, Acetonitrile, 20° C., read-out: Solubility (S)
quantity.name: solubility

INSERT INTO assay_data (compound, result) VALUES
  ('CC#C[C@@H](CC(=O)O)c1ccc(O[C@@H]2CCc3c(-c4ccc(O[C@@H]5CCOC5)nc4)ccc(F)c32)cc1 [Crystalline Form Compound 1]', '6000 to 8000 µg/mL');

###

Assay: Visual solubility analysis in 13 solvents
Assay type: physicochemical
Settings: organic solvent or mixture, thermodynamic from solid, i-Propyl acetate, 20° C., read-out: Solubility (S)
quantity.name: solubility

INSERT INTO assay_data (compound, quantity_name, result) VALUES
  ('CC#C[C@@H](CC(=O)O)c1ccc(O[C@@H]2CCc3c(-c4ccc(O[C@@H]5CCOC5)nc4)ccc(F)c32)cc1 [Crystalline Form Compound 1]', 'solubility', '17 to 25 mg/mL');

###

Assay: Visual solubility analysis in 13 solvents
Format: physicochemical
Conditions: organic solvent or mixture, thermodynamic from solid, Acetone, 20° C., read-out: Solubility (S)
quantity.name: solubility

INSERT INTO results (molecule, result) VALUES
  ('CC#C[C@@H](CC(=O)O)c1ccc(O[C@@H]2CCc3c(-c4ccc(O[C@@H]5CCOC5)nc4)ccc(F)c32)cc1 [Crystalline Form Compound 1]', '> 100 mg/mL');

###

Experiment: Visual solubility analysis in 13 solvents
Format: physicochemical
Details: organic solvent or mixture, thermodynamic from solid, Ethyl acetate, 20° C., read-out: Solubility (S)
quantity.name: solubility

INSERT INTO results (compound, quantity_name, result) VALUES
  ('CC#C[C@@H](CC(=O)O)c1ccc(O[C@@H]2CCc3c(-c4ccc(O[C@@H]5CCOC5)nc4)ccc(F)c32)cc1 [Crystalline Form Compound 1]', 'solubility', '50 to 100 mg/mL');
